The entries below are paired with their reported koff.
- test-target: T1, Human MuSK (R&D Systems, cat. 10189-MK, histidine tag) (human, UniProt O15146 24-495)
- T1 construct: Bought protein; also called human monomeric MuSK-6xhis; not shown: histidine tag (6xhis)
- T1 sequence: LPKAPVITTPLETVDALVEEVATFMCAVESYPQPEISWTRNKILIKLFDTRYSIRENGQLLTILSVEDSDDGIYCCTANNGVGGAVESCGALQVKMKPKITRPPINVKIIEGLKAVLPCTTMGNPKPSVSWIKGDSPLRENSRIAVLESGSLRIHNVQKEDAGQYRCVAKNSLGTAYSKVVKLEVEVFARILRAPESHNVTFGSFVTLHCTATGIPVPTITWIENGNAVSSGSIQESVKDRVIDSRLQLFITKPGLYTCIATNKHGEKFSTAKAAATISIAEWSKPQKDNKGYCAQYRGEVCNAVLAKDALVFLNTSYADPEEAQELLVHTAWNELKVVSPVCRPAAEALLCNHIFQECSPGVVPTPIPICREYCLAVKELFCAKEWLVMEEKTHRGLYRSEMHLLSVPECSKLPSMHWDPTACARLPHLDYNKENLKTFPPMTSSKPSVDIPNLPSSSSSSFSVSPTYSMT
- test-name: SPR (Biacore), antibody captured on anti-hFc chip; 2.5 nM; dissociation pH 5.5
Return type: number; implicit unit s⁻¹.

Here's what some known entries look like.
binder	unit-annotation	measurement
4D3 (antibody, human IgG1, kappa, L234A L235A, V domains shown) VH: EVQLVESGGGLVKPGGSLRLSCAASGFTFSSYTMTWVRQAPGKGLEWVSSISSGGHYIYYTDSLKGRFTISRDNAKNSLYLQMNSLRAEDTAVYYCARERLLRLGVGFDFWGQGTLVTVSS VL: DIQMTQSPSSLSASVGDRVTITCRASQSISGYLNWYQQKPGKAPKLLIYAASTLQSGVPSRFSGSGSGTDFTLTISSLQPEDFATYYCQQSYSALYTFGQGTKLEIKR	s⁻¹	0.00014
3D10a (antibody, human IgG1, kappa, L234A L235A, V domains shown) VH: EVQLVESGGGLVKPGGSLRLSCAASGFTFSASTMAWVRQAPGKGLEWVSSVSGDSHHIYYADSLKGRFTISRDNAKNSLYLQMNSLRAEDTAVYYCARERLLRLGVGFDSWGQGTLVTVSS VL: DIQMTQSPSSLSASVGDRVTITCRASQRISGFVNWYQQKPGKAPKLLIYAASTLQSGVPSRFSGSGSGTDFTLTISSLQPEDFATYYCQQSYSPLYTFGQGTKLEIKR	s⁻¹	9e-05

// query Answer with the recorded koff for the binder listed here: 3F6c (antibody, human IgG1, kappa, L234A L235A, V domains shown) VH: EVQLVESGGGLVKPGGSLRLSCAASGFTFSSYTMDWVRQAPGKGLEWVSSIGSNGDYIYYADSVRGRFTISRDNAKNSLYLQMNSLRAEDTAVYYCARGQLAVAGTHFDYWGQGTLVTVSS VL: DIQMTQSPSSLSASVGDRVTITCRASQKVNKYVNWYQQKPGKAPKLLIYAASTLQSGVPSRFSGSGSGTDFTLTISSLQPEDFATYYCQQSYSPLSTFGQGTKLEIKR
// result 0.0002

// query Please give the documented koff of 3D9b (antibody, human IgG1, kappa, L234A L235A, V domains shown) VH: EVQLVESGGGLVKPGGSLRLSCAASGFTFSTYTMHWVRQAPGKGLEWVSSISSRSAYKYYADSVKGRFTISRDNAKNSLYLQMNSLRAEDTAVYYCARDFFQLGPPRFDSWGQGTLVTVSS VL: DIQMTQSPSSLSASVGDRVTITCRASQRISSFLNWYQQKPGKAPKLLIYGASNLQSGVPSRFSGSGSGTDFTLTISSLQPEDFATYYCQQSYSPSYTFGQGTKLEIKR
// result 4e-05

All figures here come from patent US20230110188A1.
